targetEntity: glucocorticoid receptors (GR) in SW1353/MMTV-5 cells (Homo sapiens)
Construct: contains endogenous glucocorticoid receptors; endogenous in cells
Sequence (P04150 1-777): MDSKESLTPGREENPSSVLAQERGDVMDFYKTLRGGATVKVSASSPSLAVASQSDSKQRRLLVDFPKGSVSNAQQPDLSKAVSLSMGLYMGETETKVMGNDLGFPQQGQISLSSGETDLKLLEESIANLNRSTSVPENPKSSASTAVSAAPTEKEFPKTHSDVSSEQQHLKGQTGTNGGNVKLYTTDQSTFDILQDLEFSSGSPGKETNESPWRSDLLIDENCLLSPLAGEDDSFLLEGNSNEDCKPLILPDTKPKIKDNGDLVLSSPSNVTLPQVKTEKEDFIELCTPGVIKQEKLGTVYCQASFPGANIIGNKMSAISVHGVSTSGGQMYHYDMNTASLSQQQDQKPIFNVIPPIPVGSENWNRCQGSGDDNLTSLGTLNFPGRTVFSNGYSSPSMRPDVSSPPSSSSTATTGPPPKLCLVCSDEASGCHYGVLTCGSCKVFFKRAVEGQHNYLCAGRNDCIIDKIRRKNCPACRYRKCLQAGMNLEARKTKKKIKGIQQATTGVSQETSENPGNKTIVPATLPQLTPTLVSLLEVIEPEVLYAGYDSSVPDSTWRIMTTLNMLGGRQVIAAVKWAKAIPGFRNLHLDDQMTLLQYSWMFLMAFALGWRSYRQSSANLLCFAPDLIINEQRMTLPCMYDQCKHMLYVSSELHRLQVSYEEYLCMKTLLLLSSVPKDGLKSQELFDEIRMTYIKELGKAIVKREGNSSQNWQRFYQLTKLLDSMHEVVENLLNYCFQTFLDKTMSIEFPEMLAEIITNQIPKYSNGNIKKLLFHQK
testProtocol: GR reporter gene assay using SW1353/MMTV-5 cells (Example 24)
readoutKind: Ki

Request: Return reported Ki; argument: O=C(OCF)[C@]12Cc3cnn(-c4ccc(F)cc4)c3C=C1CCN(S(=O)(=O)c1cccc(N3CCCC3)c1)C2 [Example 15]
Response: > 20 nM

Request: Queued: O=S(=O)(c1ccc(N2CCCC2)cc1)N1CCC2=Cc3c(cnn3-c3ccc(F)cc3)C[C@]2(COCC2CC2)C1 [Example 8]
Response: < 10 nM

Request: Queued: O=S(=O)(c1cccc(N2CCCC2)c1)N1CCC2=Cc3c(cnn3-c3ccc(F)cc3)C[C@]2(COCC2CC2)C1 [Example 3]
Response: < 10 nM

Request: Queued: COC[C@]12Cc3cnn(-c4ccc(F)cc4)c3C=C1CCN(S(=O)(=O)c1cccc(N3CCCC3)c1)C2 [Example 6]
Response: 10 to 20 nM

Request: Queued: COC[C@]12Cc3cnn(-c4ccc(F)cc4)c3C=C1CCN(S(=O)(=O)c1ccc(N3CCCC3)cc1)C2 [Example 10]
Response: > 20 nM

Request: Queued: O=C(OCF)[C@]12Cc3cnn(-c4ccc(F)cc4)c3C=C1CCN(S(=O)(=O)c1cccc(N3CC[C@@H](F)C3)c1)C2 [Example 13]
Response: > 20 nM

Request: Queued: COC[C@]12Cc3cnn(-c4ccc(F)cc4)c3C=C1CCN(S(=O)(=O)c1cccc(N3CC[C@@H](F)C3)c1)C2 [Example 4]
Response: 10 to 20 nM

Request: Queued: COC(=O)[C@]12Cc3cnn(-c4ccc(F)cc4)c3C=C1CCN(S(=O)(=O)c1cccc(N3CC[C@@H](F)C3)c1)C2 [Example 12]
Response: > 20 nM

Request: Queued: O=S(=O)(c1cccc(N2CC[C@@H](F)C2)c1)N1CCC2=Cc3c(cnn3-c3ccc(F)cc3)C[C@]2(COCC2CC2)C1 [Example 1]
Response: < 10 nM

Request: Queued: COC[C@]12Cc3cnn(-c4ccc(F)cc4)c3C=C1CCN(S(=O)(=O)c1ccc(N3CC[C@@H](F)C3)cc1)C2 [Example 9]
Response: 10 to 20 nM

Request: Queued: CCOC(=O)[C@]12Cc3cnn(-c4ccc(F)cc4)c3C=C1CCN(S(=O)(=O)c1cccc(N3CCCC3)c1)C2 [Example 14]
Response: 10 to 20 nM

Request: Queued: COC[C@]12Cc3cnn(-c4ccc(F)cc4)c3C=C1CCN(S(=O)(=O)c1cccc(N3CC[C@H](F)C3)c1)C2 [Example 5]
Response: < 10 nM

FYI, the data here is from patent US20130225633A1.
